System: Staphylococcus aureus
assay.overview: Antimicrobial activity against methicillin-resistant Staphylococcus aureus by agar dilution method
Format: functional
Readings of MIC for the listed molecules
Give the value in µg/mL but do not write µg/mL after it.

Here's what some known entries look like.
1. Cc1ccccc1C(=O)N1CCN(c2ccc(N3C[C@H](Cn4ccnn4)OC3=O)cc2F)CC1: 0.5
2. Cc1cccc(C(=O)N2CCN(c3ccc(N4C[C@H](Cn5ccnn5)OC4=O)cc3F)CC2)c1: 0.25
3. O=C1O[C@@H](Cn2ccnn2)CN1c1ccc(N2CCN(S(=O)(=O)c3cccs3)CC2)c(F)c1: 0.5

Would you kindly share the measured MIC for O=C(c1ccccc1[N+](=O)[O-])N1CCN(c2ccc(N3C[C@H](Cn4ccnn4)OC3=O)cc2F)CC1 ?
0.5

Would you kindly share the measured MIC for O=C1O[C@@H](Cn2ccnn2)CN1c1ccc(N2CCN(S(=O)(=O)c3ccccc3)CC2)c(F)c1 ?
0.5

Would you kindly share the measured MIC for COc1ccccc1C(=O)N1CCN(c2ccc(N3C[C@H](Cn4ccnn4)OC3=O)cc2F)CC1 ?
1

Would you kindly share the measured MIC for O=C(/C=C/c1ccccc1Cl)N1CCN(c2ccc(N3C[C@H](Cn4ccnn4)OC3=O)cc2F)CC1 ?
0.25

Would you kindly share the measured MIC for COc1cccc(C(=O)N2CCN(c3ccc(N4C[C@H](Cn5ccnn5)OC4=O)cc3F)CC2)c1 ?
0.25

====

Tested on: Staphylococcus aureus
assay.overview: Antimicrobial activity against Staphylococcus aureus ATCC 25923 by agar dilution method
Readings of MIC for the listed molecules
Give the value in µg/mL but do not write µg/mL after it.

Here's what some known entries look like.
1. O=C(C(=O)N1CCN(c2ccc(N3C[C@H](Cn4ccnn4)OC3=O)cc2F)CC1)c1cccs1: 0.5
2. O=C1O[C@@H](Cn2ccnn2)CN1c1ccc(N2CCN(S(=O)(=O)c3ccccc3)CC2)c(F)c1: 2
3. Cc1cccc(C(=O)N2CCN(c3ccc(N4C[C@H](Cn5ccnn5)OC4=O)cc3F)CC2)c1: 0.5
4. O=C(Cc1ccccc1)N1CCN(c2ccc(N3C[C@H](Cn4ccnn4)OC3=O)cc2F)CC1: 2
5. O=C(c1cccnc1Cl)N1CCN(c2ccc(N3C[C@H](Cn4ccnn4)OC3=O)cc2F)CC1: 2

Would you kindly share the measured MIC for O=C(c1cccc(F)c1)N1CCN(c2ccc(N3C[C@H](Cn4ccnn4)OC3=O)cc2F)CC1 ?
1

Would you kindly share the measured MIC for O=C(c1ccco1)N1CCN(c2ccc(N3C[C@H](Cn4ccnn4)OC3=O)cc2F)CC1 ?
1

Would you kindly share the measured MIC for O=C(c1ccc(F)cc1)N1CCN(c2ccc(N3C[C@H](Cn4ccnn4)OC3=O)cc2F)CC1 ?
1

Would you kindly share the measured MIC for O=C(c1cccs1)N1CCN(c2ccc(N3C[C@H](Cn4ccnn4)OC3=O)cc2F)CC1 ?
0.5

Would you kindly share the measured MIC for O=C(c1ccncc1)N1CCN(c2ccc(N3C[C@H](Cn4ccnn4)OC3=O)cc2F)CC1 ?
1

Would you kindly share the measured MIC for O=C(c1ccc(Cl)cc1)N1CCN(c2ccc(N3C[C@H](Cn4ccnn4)OC3=O)cc2F)CC1 ?
0.5

Would you kindly share the measured MIC for COc1cccc(C(=O)N2CCN(c3ccc(N4C[C@H](Cn5ccnn5)OC4=O)cc3F)CC2)c1 ?
2

Would you kindly share the measured MIC for O=C(c1cccc([N+](=O)[O-])c1)N1CCN(c2ccc(N3C[C@H](Cn4ccnn4)OC3=O)cc2F)CC1 ?
2

Would you kindly share the measured MIC for Cc1ccc(C(=O)N2CCN(c3ccc(N4C[C@H](Cn5ccnn5)OC4=O)cc3F)CC2)cc1 ?
1

Would you kindly share the measured MIC for O=C(c1ccccc1)N1CCN(c2ccc(N3C[C@H](Cn4ccnn4)OC3=O)cc2F)CC1 ?
1

Would you kindly share the measured MIC for O=C1O[C@@H](Cn2ccnn2)CN1c1ccc(N2CCOCC2)c(F)c1 ?
1

Would you kindly share the measured MIC for O=C(c1ccccc1F)N1CCN(c2ccc(N3C[C@H](Cn4ccnn4)OC3=O)cc2F)CC1 ?
0.5

Would you kindly share the measured MIC for O=C(c1cccnc1)N1CCN(c2ccc(N3C[C@H](Cn4ccnn4)OC3=O)cc2F)CC1 ?
1
